Data origin, for the record: paper PMC11576293

We begin with a simple list: items and their reported inhibition at 10 µM.
- Test system: SF-268
- test details: NCI-60 single-dose screen
- Assay type: cell-based
- details: Homo sapiens, single dose 10 µM, '-' = no inhibition, read-out: % Growth Inhibition

Sample answers from the record:
compound | result
COc1ccc(-c2cc(-c3cccc(OC)c3)nc(SC(C)C)n2)cc1 [Compound 19] | 9.81%
CCCSc1nc(-c2ccc(Cl)cc2)cc(-c2ccc(OC)cc2)n1 [Compound 11] | < 0%
CCSc1nc(-c2ccc(Cl)cc2)cc(-c2ccc(OC)cc2)n1 [Compound 10] | < 0%
C=CCSc1nc(-c2ccc(Cl)cc2)cc(-c2ccc(OC)c(OC)c2)n1 [Compound 27] | < 0%
CCSc1nc(-c2ccc(OC)cc2)cc(-c2cccc(OC)c2)n1 [Compound 17] | < 0%

Query: What inhibition at 10 µM value was documented for this compound, COc1ccc(-c2cc(-c3ccc(Cl)cc3)nc(SCc3ccccc3)n2)cc1 [Compound 14] ?
Result: < 0%

Query: What inhibition at 10 µM value was documented for this compound, COc1ccc(CSc2nc(-c3ccc(Cl)cc3)cc(-c3ccc(OC)cc3)n2)cc1 [Compound 15] ?
Result: < 0%

Query: What inhibition at 10 µM value was documented for this compound, COc1ccc(-c2cc(-c3ccc(Cl)cc3)nc(SC)n2)cc1 [Compound 9] ?
Result: 4.44%

Query: What inhibition at 10 µM value was documented for this compound, COc1ccc(-c2cc(-c3ccc(Cl)cc3)nc(SC(C)C)n2)cc1OC [Compound 26] ?
Result: < 0%

Query: What inhibition at 10 µM value was documented for this compound, C=CCSc1nc(-c2ccc(OC)cc2)cc(-c2cccc(OC)c2)n1 [Compound 20] ?
Result: < 0%

###

We begin with a simple list: items and their reported inhibition at 10 µM.
- Test system: EKVX
- test details: NCI-60 single-dose screen
- Type: cell-based
- details: Homo sapiens, single dose 10 µM, '-' = no inhibition, read-out: % Growth Inhibition
Your answer is read as %, so omit the unit and give the number.

chemical smiles | measurement units | inhibition at 10 µM
CCSc1nc(-c2ccc(Cl)cc2)cc(-c2ccc(OC)cc2)n1 | % | 7.83

Query: What inhibition at 10 µM value was documented for this compound, C=CCSc1nc(-c2ccc(OC)cc2)cc(-c2cccc(OC)c2)n1 ?
Result: 4.8

Query: What inhibition at 10 µM value was documented for this compound, CCSc1nc(-c2ccc(OC)cc2)cc(-c2cccc(OC)c2)n1 ?
Result: 1.03

Query: What inhibition at 10 µM value was documented for this compound, C=CCSc1nc(-c2ccc(Cl)cc2)cc(-c2ccc(OC)c(OC)c2)n1 ?
Result: 12.2

###

We begin with a simple list: items and their reported inhibition at 10 µM.
- Test system: SK-OV-3
- test details: NCI-60 single-dose screen
- Type: cell-based
- details: Homo sapiens, single dose 10 µM, '-' = no inhibition, read-out: % Growth Inhibition

chemical smiles | inhibition at 10 µM
COc1ccc(-c2cc(-c3ccc(Cl)cc3)nc(SCc3ccccc3)n2)cc1 | < 0%
COc1ccc(-c2cc(-c3ccc(Cl)cc3)nc(SC)n2)cc1OC | 2.94%
COc1ccc(-c2cc(-c3ccc(Cl)cc3)nc(SC(C)C)n2)cc1 | < 0%
CCSc1nc(-c2ccc(Cl)cc2)cc(-c2ccc(OC)c(OC)c2)n1 | < 0%
CCCSc1nc(-c2ccc(Cl)cc2)cc(-c2ccc(OC)c(OC)c2)n1 | 2.94%
COc1ccc(-c2cc(-c3ccc(Cl)cc3)nc(SCc3ccccc3)n2)cc1OC | 2.92%
C=CCSc1nc(-c2ccc(Cl)cc2)cc(-c2ccc(OC)c(OC)c2)n1 | < 0%
COc1ccc(-c2cc(-c3cccc(OC)c3)nc(SC(C)C)n2)cc1 | < 0%

Query: What inhibition at 10 µM value was documented for this molecule, CCCSc1nc(-c2ccc(Cl)cc2)cc(-c2ccc(OC)cc2)n1 ?
Result: < 0%

Query: What inhibition at 10 µM value was documented for this molecule, C=CCSc1nc(-c2ccc(OC)cc2)cc(-c2cccc(OC)c2)n1 ?
Result: < 0%

Query: What inhibition at 10 µM value was documented for this molecule, COc1ccc(CSc2nc(-c3ccc(Cl)cc3)cc(-c3ccc(OC)c(OC)c3)n2)cc1 ?
Result: 13.9%

Query: What inhibition at 10 µM value was documented for this molecule, CCSc1nc(-c2ccc(Cl)cc2)cc(-c2ccc(OC)cc2)n1 ?
Result: < 0%

Query: What inhibition at 10 µM value was documented for this molecule, COc1ccc(-c2cc(-c3cccc(OC)c3)nc(SC)n2)cc1 ?
Result: 13.7%

Query: What inhibition at 10 µM value was documented for this molecule, COc1ccc(CSc2nc(-c3ccc(Cl)cc3)cc(-c3ccc(OC)cc3)n2)cc1 ?
Result: < 0%

Query: What inhibition at 10 µM value was documented for this molecule, COc1ccc(-c2cc(-c3ccc(Cl)cc3)nc(SC(C)C)n2)cc1OC ?
Result: < 0%

Query: What inhibition at 10 µM value was documented for this molecule, C=CCSc1nc(-c2ccc(Cl)cc2)cc(-c2ccc(OC)cc2)n1 ?
Result: < 0%

Query: What inhibition at 10 µM value was documented for this molecule, COc1ccc(-c2cc(-c3ccc(Cl)cc3)nc(SC)n2)cc1 ?
Result: < 0%

Query: What inhibition at 10 µM value was documented for this molecule, CCCSc1nc(-c2ccc(OC)cc2)cc(-c2cccc(OC)c2)n1 ?
Result: < 0%
